System: MRSA NRS 10129
Experiment: MIC against clinical MRSA isolate NRS 10129
Format: cell-based
Conditions: Staphylococcus aureus, MRSA|NRS10129, read-out: MIC against MRSA NRS 10129

| MOLECULE | MEASURE UNIT | MIC |
| --- | --- | --- |
| COc1cccc(OC)c1C(=O)N[C@@H]1C(=O)N2[C@@H]1SC(C)(C)[C@@H]2C(=O)O [Methicillin, reference compound] | µg/mL | 32 |
| O=C(Nc1ccc(Br)cc1)c1cc(Cl)ccc1O | µg/mL | 0.5 |
| CN[C@H](CC(C)C)C(=O)N[C@H]1C(=O)N[C@@H](CC(N)=O)C(=O)N[C@H]2C(=O)N[C@H]3C(=O)N[C@H](C(=O)N[C@H](C(=O)O)c4cc(O)cc(O)c4-c4cc3ccc4O)[C@H](O)c3ccc(c(Cl)c3)Oc3cc2cc(c3O[C@@H]2O[C@H](CO)[C@@H](O)[C@H](O)[C@H]2O[C@H]2C[C@](C)(N)[C@H](O)[C@H](C)O2)Oc2ccc(cc2Cl)[C@H]1O [Vancomycin, reference compound] | µg/mL | 1 |
| O=C(Nc1ccc(Cl)c(C(F)(F)F)c1)c1cc(Cl)ccc1O | µg/mL | 0.5 |
| C[C@H]1COc2c(N3CCN(C)CC3)c(F)cc3c(=O)c(C(=O)O)cn1c23 [Levofloxacin, reference compound] | µg/mL | 0.25 |

* * *

Tested on: S. aureus ATCC 29213
Assay: Drug interaction of 22 with FDA-approved drugs, checkerboard method
Type: cell-based, Staphylococcus aureus
Details: S. aureus ATCC 29213, checkerboard; in combination with 22
REPORTED ENDPOINT: MIC of drug in the presence of “22” “B” (µg/mL)

| COMPOUND | REPORTED ENDPOINT | VALUE MEASURED |
| --- | --- | --- |
| CN[C@H](CC(C)C)C(=O)N[C@H]1C(=O)N[C@@H](CC(N)=O)C(=O)N[C@H]2C(=O)N[C@H]3C(=O)N[C@H](C(=O)N[C@H](C(=O)O)c4cc(O)cc(O)c4-c4cc3ccc4O)[C@H](O)c3ccc(c(Cl)c3)Oc3cc2cc(c3O[C@@H]2O[C@H](CO)[C@@H](O)[C@H](O)[C@H]2O[C@H]2C[C@](C)(N)[C@H](O)[C@H](C)O2)Oc2ccc(cc2Cl)[C@H]1O [Vancomycin, reference compound] | MIC of drug in the presence of “22” “B” | 0.5 |
| CN(C)c1ccc(O)c2c1C[C@H]1C[C@H]3[C@H](N(C)C)C(O)=C(C(N)=O)C(=O)[C@@]3(O)C(O)=C1C2=O | MIC of drug in the presence of “22” “B” | 0.125 |
| CC(=O)NC[C@H]1CN(c2ccc(N3CCOCC3)c(F)c2)C(=O)O1 | MIC of drug in the presence of “22” “B” | 0.5 |
| C[C@@H](O)[C@H]1C(=O)N2C(C(=O)O)=C(S[C@@H]3CN[C@H](C(=O)N(C)C)C3)[C@H](C)[C@H]12 [Meropenem, reference compound] | MIC of drug in the presence of “22” “B” | 0.5 |
| C[C@H]1COc2c(N3CCN(C)CC3)c(F)cc3c(=O)c(C(=O)O)cn1c23 [Levofloxacin, reference compound] | MIC of drug in the presence of “22” “B” | 0.25 |

* * *

Test system: S. aureus ATCC 29213
Assay: Drug interaction of 22 with FDA-approved drugs, checkerboard method
Assay type: cell-based, Staphylococcus aureus
Details: S. aureus ATCC 29213, checkerboard; in combination with 22

| COMPOUND | MEASURE UNIT | MIC of drug in the presence of “22” “B” |
| --- | --- | --- |
| CC(C)(O/N=C(\C(=O)N[C@@H]1C(=O)N2C(C(=O)[O-])=C(C[n+]3ccccc3)CS[C@H]12)c1csc(N)n1)C(=O)O [Ceftazidime] | µg/mL | 16 |
| CNC(C)C1CCC(N)C(OC2C(N)CC(N)C(OC3OCC(C)(O)C(NC)C3O)C2O)O1 (stereo not drawn) [Gentamicin] | µg/mL | 0.25 |
| CCCCCCCCCC(=O)N[C@@H](Cc1c[nH]c2ccccc12)C(=O)N[C@H](CC(N)=O)C(=O)N[C@@H](CC(=O)O)C(=O)N[C@@H]1C(=O)NCC(=O)N[C@@H](CCCN)C(=O)N[C@@H](CC(=O)O)C(=O)N[C@H](C)C(=O)N[C@@H](CC(=O)O)C(=O)NCC(=O)N[C@H](CO)C(=O)N[C@@H]([C@H](C)CC(=O)O)C(=O)N[C@@H](CC(=O)c2ccccc2N)C(=O)O[C@@H]1C [Daptomycin] | µg/mL | 1 |

* * *

The reader will find reported MIC values listed item by item below.
Tested on: S. aureus ATCC 29213
Assay: Drug interaction of 22 with FDA-approved drugs, checkerboard method
Format: cell-based, Staphylococcus aureus
Conditions: Staphylococcus aureus, ATCC29213, 24 h, read-out: MIC (drug alone)
REPORTED ENDPOINT: MIC

| MOLECULE | REPORTED ENDPOINT | VALUE MEASURED |
| --- | --- | --- |
| CN[C@H](CC(C)C)C(=O)N[C@H]1C(=O)N[C@@H](CC(N)=O)C(=O)N[C@H]2C(=O)N[C@H]3C(=O)N[C@H](C(=O)N[C@H](C(=O)O)c4cc(O)cc(O)c4-c4cc3ccc4O)[C@H](O)c3ccc(c(Cl)c3)Oc3cc2cc(c3O[C@@H]2O[C@H](CO)[C@@H](O)[C@H](O)[C@H]2O[C@H]2C[C@](C)(N)[C@H](O)[C@H](C)O2)Oc2ccc(cc2Cl)[C@H]1O [Vancomycin, reference compound] | MIC | 1 µg/mL |
| C[C@@H](O)[C@H]1C(=O)N2C(C(=O)O)=C(S[C@@H]3CN[C@H](C(=O)N(C)C)C3)[C@H](C)[C@H]12 [Meropenem, reference compound] | MIC | 0.5 µg/mL |
| O=C(Nc1ccc(Br)c(C(F)(F)F)c1)c1cc(Cl)ccc1O [Compound 22] | MIC | 0.5 µg/mL |
| C[C@H]1COc2c(N3CCN(C)CC3)c(F)cc3c(=O)c(C(=O)O)cn1c23 [Levofloxacin, reference compound] | MIC | 0.25 µg/mL |
| CCCCCCCCCC(=O)N[C@@H](Cc1c[nH]c2ccccc12)C(=O)N[C@H](CC(N)=O)C(=O)N[C@@H](CC(=O)O)C(=O)N[C@@H]1C(=O)NCC(=O)N[C@@H](CCCN)C(=O)N[C@@H](CC(=O)O)C(=O)N[C@H](C)C(=O)N[C@@H](CC(=O)O)C(=O)NCC(=O)N[C@H](CO)C(=O)N[C@@H]([C@H](C)CC(=O)O)C(=O)N[C@@H](CC(=O)c2ccccc2N)C(=O)O[C@@H]1C [Daptomycin] | MIC | 1 µg/mL |

* * *

The reader will find reported MIC values listed item by item below.
Tested on: S. aureus ATCC 29213
Experiment: Drug interaction of 22 with FDA-approved drugs, checkerboard method
Format: cell-based, Staphylococcus aureus
Details: Staphylococcus aureus, ATCC29213, 24 h, read-out: MIC (drug alone)

| MOLECULE | MEASURE UNIT | MIC |
| --- | --- | --- |
| CNC(C)C1CCC(N)C(OC2C(N)CC(N)C(OC3OCC(C)(O)C(NC)C3O)C2O)O1 (stereo not shown) | µg/mL | 0.5 |
| CC(=O)NC[C@H]1CN(c2ccc(N3CCOCC3)c(F)c2)C(=O)O1 | µg/mL | 2 |
| CC(C)(O/N=C(\C(=O)N[C@@H]1C(=O)N2C(C(=O)[O-])=C(C[n+]3ccccc3)CS[C@H]12)c1csc(N)n1)C(=O)O | µg/mL | 16 |
| CN(C)c1ccc(O)c2c1C[C@H]1C[C@H]3[C@H](N(C)C)C(O)=C(C(N)=O)C(=O)[C@@]3(O)C(O)=C1C2=O | µg/mL | 0.125 |

* * *

Tested on: MRSA NRS 10129
Assay: MIC against clinical MRSA isolate NRS 10129
Type: cell-based
Conditions: Staphylococcus aureus, MRSA|NRS10129, read-out: MIC against MRSA NRS 10129

| COMPOUND | ASSAYED TARGET | MIC |
| --- | --- | --- |
| O=C(Nc1ccc(Cl)cc1)c1cc(Cl)ccc1O [Compound 24] | MRSA NRS 10129 | 0.5 µg/mL |
| C[C@@H](O)[C@H]1C(=O)N2C(C(=O)O)=C(S[C@@H]3CN[C@H](C(=O)N(C)C)C3)[C@H](C)[C@H]12 [Meropenem, reference compound] | MRSA NRS 10129 | 16 µg/mL |
| O=C(Nc1ccc(Br)c(C(F)(F)F)c1)c1cc(Cl)ccc1O [Compound 22] | MRSA NRS 10129 | 0.0625 µg/mL |
